test system: Fibroblast; test: Multiplex assay against human fibroblast; assay type: toxicity, cell-based; settings: 24 h, 1 µM, compound concentration 1 uM, replicate 2
Quick reference for Population Hoechst High Intensity Objects (%) among some molecules
MEASURED_ENDPOINT: Population Hoechst High Intensity Objects (%)

- SMILES_STR: "Cc1ccc(NC(=O)Nc2cc(C(F)(F)F)ccc2F)cc1Nc1ccc2c(c1)NC(=O)/C2=C\\c1ccc[nH]1"
  TARGET_OR_TEST_SYSTEM: "Fibroblast"
  U: "%"
  OBSERVED_RESULT: 55
- SMILES_STR: "Cc1c(Nc2ccc(S(=O)(=O)N3CCN(C)CC3)cc2F)nc2ccc(Nc3cnn(C4CC4)c3)cn2c1=O"
  TARGET_OR_TEST_SYSTEM: "Fibroblast"
  U: "%"
  OBSERVED_RESULT: 30
- SMILES_STR: "CC[C@@H]1C(=O)N(C)c2cnc(Nc3ccc(C(=O)N[C@H]4CC[C@H](N5CCN(CC6CC6)CC5)CC4)cc3OC)nc2N1C(C)C"
  TARGET_OR_TEST_SYSTEM: "Fibroblast"
  U: "%"
  OBSERVED_RESULT: 38
- SMILES_STR: "CCOc1ccn(-c2ccc(F)cc2)c(=O)c1C(=O)Nc1ccc(Oc2ccnc(N)c2Cl)c(F)c1"
  TARGET_OR_TEST_SYSTEM: "Fibroblast"
  U: "%"
  OBSERVED_RESULT: 31
- SMILES_STR: "NC(=O)c1ccc2nc(-c3ccc(C4(N)CCC4)cc3)c(-c3ccccc3)n2n1"
  TARGET_OR_TEST_SYSTEM: "Fibroblast"
  U: "%"
  OBSERVED_RESULT: 39
